Values from the NIST ThermoML archive (doi:10.1016/j.tca.2009.03.014)

Details: 308.15 K; 101.33 kPa; Liquid; Linear variable-path acoustic interferometer
Readout label: speed of sound (m/s)

{"columns": ["Compound", "speed of sound [m/s]"],
 "data": [
  ["O=C1CCCN1 [2-pyrrolidinone]", 1603],
  ["CCCCO [butan-1-ol]", 1232.2],
  ["CCCO [propan-1-ol]", 1188.2],
  ["CCO [ethanol]", 1112]
]}

====

Details: 298.15 K; 101.33 kPa; Liquid; Pycnometric method
Readout label: mass density (kg/m3)

{"columns": ["Compound", "Recorded value"],
 "data": [
  ["O=C1CCCN1 [2-pyrrolidinone]", 1107.26],
  ["CCCCO [butan-1-ol]", 809.5],
  ["CCCO [propan-1-ol]", 799.28],
  ["CC(C)O [propan-2-ol]", 780.98],
  ["CCO [ethanol]", 785.08]
]}
